src = patent US12570655B2

# test-target: AKT2 (Homo sapiens)
# Sequence (P31751 whole entry): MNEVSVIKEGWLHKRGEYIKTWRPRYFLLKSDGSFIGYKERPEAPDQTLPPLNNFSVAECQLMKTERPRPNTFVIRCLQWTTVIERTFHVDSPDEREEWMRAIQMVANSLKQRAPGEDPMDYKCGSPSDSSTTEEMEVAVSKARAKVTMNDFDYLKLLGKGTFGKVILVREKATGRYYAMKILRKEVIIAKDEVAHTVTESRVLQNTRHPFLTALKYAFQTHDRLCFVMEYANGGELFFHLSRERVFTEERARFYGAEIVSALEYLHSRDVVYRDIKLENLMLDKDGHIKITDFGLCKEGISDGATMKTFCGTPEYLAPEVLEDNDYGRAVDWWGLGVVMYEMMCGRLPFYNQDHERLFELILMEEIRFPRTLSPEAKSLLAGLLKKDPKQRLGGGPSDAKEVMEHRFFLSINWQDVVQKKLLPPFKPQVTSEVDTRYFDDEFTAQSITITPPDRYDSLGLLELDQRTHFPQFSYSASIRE
# method-summary: Live cell AKT2 target engagement by NanoBRET competitive probe displacement
# cond: HEK293 cells transfected with kinase-NanoLuciferase fusion, 2 h at 37° C.
pIC50: −log10 of the molar value.
value-type: pIC50

compound: C=CC(=O)N1CCC(N[C@H]2CCc3cc(-n4c(-c5cccnc5N)nc5ccc(-c6cnn(C(F)(F)F)c6)nc54)ccc32)CC1
pIC50: 6.62

I = C=CC(=O)N1CCC(N[C@@H]2c3ccc(-n4c(-c5cccnc5N)nc5ccc(-n6ccc(F)n6)nc54)cc3CC2F)C[C@H]1C (single isomer, unassigned) [Example 276]
II = C=CC(=O)N1CCC(N[C@@H]2c3ccc(-n4c(-c5cccnc5N)nc5ccc(-n6cccn6)nc54)cc3CC2F)CC1C(F)F (single isomer, unassigned) [Example 304]
III = Nc1ncccc1-c1nc2ccc(-n3cccn3)nc2n1-c1ccc2c(c1)CC[C@@H]2NC1CCN(C(=O)[C@@H]2CO2)CC1
Q: Kindly order the items shown according to pIC50, from the highest value down. Kindly provide the labels arranged according to the requested ordering.
Result: II, I, III
(II: 7.44, I: 6.97, III: 6.41)

* * *

# test-target: AKT1 WT (Homo sapiens)
# Sequence (P31749 whole entry): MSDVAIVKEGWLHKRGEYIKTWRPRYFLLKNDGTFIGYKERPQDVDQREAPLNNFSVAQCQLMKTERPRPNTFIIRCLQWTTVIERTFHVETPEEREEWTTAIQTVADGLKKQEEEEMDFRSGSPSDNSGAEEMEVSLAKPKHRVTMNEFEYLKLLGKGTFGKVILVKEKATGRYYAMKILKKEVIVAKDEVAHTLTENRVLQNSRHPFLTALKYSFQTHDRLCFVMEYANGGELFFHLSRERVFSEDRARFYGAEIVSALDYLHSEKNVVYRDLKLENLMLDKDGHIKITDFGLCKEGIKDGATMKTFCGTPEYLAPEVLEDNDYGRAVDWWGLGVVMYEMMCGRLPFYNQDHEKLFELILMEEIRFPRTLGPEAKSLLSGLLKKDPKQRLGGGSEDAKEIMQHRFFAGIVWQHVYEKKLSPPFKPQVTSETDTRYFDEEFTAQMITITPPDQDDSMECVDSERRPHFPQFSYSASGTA
# method-summary: Live cell AKT1 WT target engagement by NanoBRET competitive probe displacement
# cond: HEK293 cells transfected with kinase-NanoLuciferase fusion, 2 h at 37° C.
pIC50: −log10 of the molar value.
value-type: pIC50

Check out these entries, answers already filled in.
compound: C=CC(=O)N1CCN(NC2CCc3cc(-n4c(-c5cccnc5N)nc5ccc(-n6cccn6)nc54)ccc32)CC1 (single isomer, unassigned) [Example 148]
test-target: AKT1 WT (Homo sapiens)
pIC50: 7.90
//
compound: C=CC(=O)N1CCC(N[C@H]2CCc3cc(-n4c(-c5cccnc5N)nc5ccc(-n6cccn6)nc54)ccc32)CC1CC#N (single isomer, unassigned) [Example 338]
test-target: AKT1 WT (Homo sapiens)
pIC50: 6.97

1 = Nc1ncccc1-c1nc2ccc(-n3cccn3)nc2n1-c1ccc2c(c1)CC[C@@H]2NC1CCN(C(=O)CCl)CC1
2 = C=CS(=O)(=O)N1CCC(N[C@H]2CCc3cc(-n4c(-c5cccnc5N)nc5ccc(-n6cccn6)nc54)ccc32)CC1
3 = CN(C)C/C=C/C(=O)N1CCC(N[C@H]2CCc3cc(-n4c(-c5cccnc5N)nc5ccc(-n6cccn6)nc54)ccc32)CC1
Q: Order by pIC50, ascending. Kindly provide the labels arranged according to the requested ordering.
Result: 1, 3, 2

* * *

# test-target: AKT1 E17K (Homo sapiens, UniProt P31749, E17K)
# Sequence (P31749 whole entry E17K): as the sequence (P31749 whole entry) above, with E17K counted along it
# method-summary: Live cell AKT1 E17K target engagement by NanoBRET competitive probe displacement
# cond: HEK293 cells transfected with kinase-NanoLuciferase fusion, 2 h at 37° C.
value-type: IC50 (nM)

given-smiles: C=CC(=O)N1CCC(N[C@H]2CCc3cc(-n4c(-c5cccs5)nc5ccc(-n6cccn6)nc54)ccc32)CC1
quantity-unit: nM
IC50: 43.2

1 = C=CC(=O)N1CCC(N[C@H]2CCc3cc(-n4c(-c5cccnc5N)nc5ccc(-c6nccs6)nc54)ccc32)CC1
2 = C=CC(=O)N1CCC(N[C@H]2CCc3cc(-n4c(-c5cccnc5N)nc5ccc(-c6cnn(C)n6)nc54)ccc32)CC1
Q: Kindly compare 1 with 2 and tell me which has the lower IC50 figure. Label of pick, please.
Result: 2
(2: 26.9 nM, 1: 56.2 nM)
